Assay Method Text: folding enthalpy; higher = less favourable; fluorescence melt of hairpins on a sequencing array, two-state fit
Experimental Conditions: sodium 0.088 M
# cutoff -20 kcal/mol applies to folding enthalpy; >= gives 1 (yes), < gives 0 (no)

INSERT INTO assay_data (sequence_text, classification) VALUES
  ('GTCTCTTCGAAAGAAGAC (((..(((....))))))', '1 (yes)'),
  ('GGTGCCCCGAAAGGGACC (((..(((....))))))', '1 (yes)'),
  ('GATCTGGAGACAGATC ((((((....))))))', '0 (no)'),
  ('GTGTAAGGAAACTCACAC ((((.((....)).))))', '1 (yes)'),
  ('GTAAACGAAAGTTCTTAC ((((((....)))..)))', '1 (yes)'),
  ('GCGAAGCGAAAGCTAAGC ((..(((....)))..))', '1 (yes)'),
  ('GTCGCCGAAAGGCTCGAC ((((((....)))..)))', '1 (yes)'),
  ('GGGAGCGGAAACGCTTCC ((.((((....)))).))', '0 (no)'),
  ('CGAACGAAAGTTCG (((((....)))))', '0 (no)'),
  ('GGACACGAAAGTGATTCC ((((((....)))..)))', '1 (yes)'),
  ('GTAATTGGAAACAATCAC ((.((((....)))).))', '1 (yes)'),
  ('GCATCCGAAAGGAACTGC ((((((....)))..)))', '1 (yes)'),
  ('GTTCATCGAAAGATAAAC (((.(((....))).)))', '1 (yes)'),
  ('GGTATTCGAAAGAAGACC (((.(((....))).)))', '0 (no)'),
  ('GTTGCCGAAAGGCTCAAC ((((((....)))..)))', '1 (yes)'),
  ('GGGCTTCGAAAGAATCCC (((.(((....))).)))', '0 (no)'),
  ('GACTCTGAAAAGAGTC ((((((....))))))', '0 (no)'),
  ('GGTTCGGGAAACCGAATC (.(((((....))))).)', '0 (no)'),
  ('CGTGTCGGAAACGAACG (((.(((....))))))', '0 (no)'),
  ('GCACATGGAAACATGTAC (.(((((....))))).)', '1 (yes)'),
  ('GCCTTCGGAAACGAAAGC ((.((((....)))).))', '0 (no)'),
  ('GCATAACGAAAGTTTGC (((.(((....))))))', '0 (no)'),
  ('GATCCTACTCAGGATC ((((((....))))))', '0 (no)'),
  ('GAAGAGCCGAAAGGCTTC (((..(((....))))))', '1 (yes)'),
  ('GCTCACGAAAGTGCAGC ((((((....))).)))', '0 (no)'),
  ('GGTATGGAAACATACC ((((((....))))))', '0 (no)'),
  ('GGCCCCGAAAGGGCGGCC ((((((....)))..)))', '1 (yes)'),
  ('GCAGTGCGAAAGCAGGGC ((..(((....)))..))', '0 (no)'),
  ('GATCCGAGTCGGATC ((((((...))))))', '0 (no)'),
  ('GCACGGGGAAACCCACGC ((..(((....)))..))', '0 (no)'),
  ('GCTTAGCGAAAGCCCAGC (((..((....))..)))', '1 (yes)'),
  ('GATCCTTCCGAGGATC ((((((....))))))', '0 (no)'),
  ('GAGGCACGAAAGTGTCTC (((.(((....))).)))', '0 (no)'),
  ('GCTGACGAAAGTCATAGC ((((((....)))..)))', '1 (yes)'),
  ('GCGACCGAAAGGTAGCGC ((((((....)))..)))', '0 (no)'),
  ('GATCGTGGGAACGATC ((((((....))))))', '0 (no)'),
  ('GTGGGGGAAACCCCAC ((((((....))))))', '0 (no)'),
  ('GGCCAGCGAAAGCTGCC (((.(((....))))))', '1 (yes)'),
  ('GATCCCCAGTGGGATC ((((((....))))))', '0 (no)'),
  ('GCTTGCACGAAAGTGAGC (((..(((....))))))', '1 (yes)'),
  ('GATGGCACGAAAGTGATC (((..(((....))))))', '1 (yes)'),
  ('GATCGCAGGGGCGATC ((((((....))))))', '0 (no)'),
  ('GCCCCGCGAAAGCGCGGC (((.(((....))).)))', '1 (yes)'),
  ('GCGCATGGAAACACACGC (((..((....))..)))', '1 (yes)'),
  ('GATAGGGGAAACCCTATC (((((((....)))))))', '0 (no)'),
  ('GAAGACCCGAAAGGGTTC (((..(((....))))))', '1 (yes)'),
  ('GATCGACATTTCGATC ((((((....))))))', '0 (no)'),
  ('GCGTATAACGC ((((...))))', '0 (no)'),
  ('CGGAAGCGGAAACGCCCG (((..(((....))))))', '0 (no)'),
  ('GATCAGTCGACTGATC ((((((....))))))', '0 (no)');

* * *

Assay Method Text: melting temperature; fluorescence melt of hairpins on a sequencing array, two-state fit, raised by 9.35 °C to match UV melts
Experimental Conditions: sodium 0.088 M
Hi! Could you tag entries with Tm below 50 °C as True, and those at or above as False? Much appreciated.

INSERT INTO results (sequence_text, classification) VALUES
  ('GCATAGCGAAAGCTACGC ((.((((....)))).))', 'False'),
  ('GCGGTCGGAAACGACTGC ((.((((....)))).))', 'False'),
  ('GATGAGGGAAACCTCATC (((((((....)))))))', 'False'),
  ('GCGGACTCCCGC ((((....))))', 'False'),
  ('GCGGTCGGAAACGGTCGC (((..((....))..)))', 'False'),
  ('GACACCGAAAGGTCCGTC ((((((....)))..)))', 'True'),
  ('CGTTCGGAAACGAAAACG ((((((....)))..)))', 'True'),
  ('GAAGCAGGAAACTGCCTC ((.((((....)))).))', 'True'),
  ('GATCGGCAGACCGATC ((((((....))))))', 'False'),
  ('GTCTGTCGAAAGACGGAC (((.(((....))).)))', 'False');

* * *

Assay Method Text: folding enthalpy; higher = less favourable; fluorescence melt of hairpins on a sequencing array, two-state fit
Experimental Conditions: sodium 0.088 M
Reported Endpoint: folding enthalpy (kcal/mol)

INSERT INTO assay_data (sequence_text, assay_result) VALUES
  ('GCTACCGAAAGGTCTAGC ((((((....)))..)))', -14.9),
  ('GATCCTTACGAGGATC ((((((....))))))', -39.9),
  ('GGAAACGAAAGTTATCC ((((((....))).)))', -12.1),
  ('GATCAGTAACTGATC ((((((...))))))', -37.8),
  ('GGTAGCTCGAAAGAGACC (((..(((....))))))', -11.7),
  ('GCTCAGCGAAAGCGCAGC (((..((....))..)))', -14.8),
  ('GCTCACGAAAGTGGTAGC ((((((....)))..)))', -19.7),
  ('GATCTTCGCGAAGATC ((((((....))))))', -59),
  ('GCATGTGAAAACATGC ((((((....))))))', -38.3),
  ('GTAGTGGGAAACCACCAC ((.((((....)))).))', -16.3),
  ('GCAATCGAAAGATGTTGC ((((((....)))..)))', -15.9),
  ('GGCCATCGAAAGATCGCC (((.(((....))).)))', -33.6),
  ('GCCATGCGAAAGCTCGGC (((..((....))..)))', -23.6),
  ('GCGTAGCGAAAGCTGTGC ((..(((....)))..))', -10),
  ('GTGAATGGAAACATTCAC (((((((....)))))))', -45.6),
  ('GACAGCGAAAGCTTGTC ((((((....))).)))', -22),
  ('GATCAGCATGCTGATC ((((((....))))))', -47.5),
  ('GAATAACGAAAGTTCTTC (((.(((....))).)))', -20.7),
  ('GCGCACGAAAGTGGACGC ((((((....)))..)))', -32.7),
  ('GTCGCCGAAAGGCGAGAC ((((((....)))..)))', -7.32),
  ('GACACCGAAAGGTGTGTC ((((((....)))..)))', -11.3),
  ('GCGATGCGTCGC ((((....))))', -20.1),
  ('GATCGAGTGATCGATC ((((((....))))))', -40.1),
  ('GCGAACGAAAGTTACCGC ((((((....)))..)))', -22.1),
  ('GCGGAGCGAAAGCACGGC ((.(.((....)).).))', -9.69),
  ('CGTCGACGGAAACGTACG (((..(((....))))))', -20.2),
  ('GATCAAGCTCTTGATC ((((((....))))))', -38.9),
  ('GACAGCCGAAAGGCAGTC (((.(((....))).)))', -22.5),
  ('GGGCTCGAAAGAGAACCC ((((((....)))..)))', -19.5),
  ('GCGTCCGTACGC ((((....))))', -26.8),
  ('GTTAGGCGAAAGCCCAAC (((.(((....))).)))', -13.8),
  ('GTTATCGAAAGATAAAAC ((((((....)))..)))', -9.3),
  ('GCGGGGTCGAAAGACCGC (((..(((....))))))', -12.8),
  ('GCAGACTCGAAAGAGTGC (((..(((....))))))', -16),
  ('GATCTGTGTACAGATC ((((((....))))))', -47.9),
  ('GGGTCAGGAAACTGATCC ((.((((....)))).))', -38.9),
  ('GATCGACTCTCGATC ((((((...))))))', -40.6),
  ('GCACCAGAAATGGTGC ((((((....))))))', -35.6),
  ('GATCGCTGTTGCGATC ((((((....))))))', -28.7),
  ('GTGTCACGAAAGTGTCAC (((.(((....))).)))', -40.4),
  ('GCAGGGCGAAAGCCTCGC ((..(((....)))..))', -16.4),
  ('GTGAACGAAAGTTCGCAC ((((((....)))..)))', -16.4),
  ('GATTGTGGAAACATAATC ((((.((....)).))))', -27.3),
  ('GCTATCGAAAGATTAAGC ((((((....)))..)))', -17.1),
  ('GTAGGAGGAAACTCCTGC (.(((((....))))).)', -22.3),
  ('GGGAATGGAAACATTCCC (((((((....)))))))', -54.2),
  ('GTGACGGGAAACCGTTGC (..((((....))))..)', -17.6),
  ('GATCAAGCCTTGATC ((((((...))))))', -26.1),
  ('GATCCACTATTGGATC ((((((....))))))', -40.9),
  ('CGAGTCGGAAACGAGTCG (((.(((....))).)))', -35.9);

The values you see were collected from the array DNA melting data of Ke et al. (doi:10.1101/2024.01.08.574731).
